Provenance of the data: patent US12286418B2

target: OXA-163 (Klebsiella pneumoniae, UniProt Q6XEC0, DEL214-217/S212D); experiment: Inhibition of other OXA enzymes (nitrocefin reporter): OXA-163
Sequence (Q6XEC0 23-211, added parts left off, stated change not applied): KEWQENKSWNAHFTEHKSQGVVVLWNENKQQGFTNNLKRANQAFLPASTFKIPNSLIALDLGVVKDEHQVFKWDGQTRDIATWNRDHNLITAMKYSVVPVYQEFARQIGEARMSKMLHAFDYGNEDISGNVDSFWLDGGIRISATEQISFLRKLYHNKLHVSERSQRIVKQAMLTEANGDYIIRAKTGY
Measure name: Ki (nM)
Report the figure in nM without appending any unit label.

Would you mind telling me what Ki value was observed for `CCOc1ccccc1N1CCN(c2ncnc(N3CCC(C(=O)O)CC3)n2)CC1` ?
440

* * *

target: OXA-48 (Klebsiella pneumoniae, UniProt Q6XEC0); assay: Surface plasmon resonance binding to immobilized 6x-His-OXA-48; design: His-tag (N, cleaved yes); made in house; host or cells: E. coli BL21(DE3), pET28a; conditions: SPR, immobilized His-OXA-48
Sequence (Q6XEC0 23-265, looked up): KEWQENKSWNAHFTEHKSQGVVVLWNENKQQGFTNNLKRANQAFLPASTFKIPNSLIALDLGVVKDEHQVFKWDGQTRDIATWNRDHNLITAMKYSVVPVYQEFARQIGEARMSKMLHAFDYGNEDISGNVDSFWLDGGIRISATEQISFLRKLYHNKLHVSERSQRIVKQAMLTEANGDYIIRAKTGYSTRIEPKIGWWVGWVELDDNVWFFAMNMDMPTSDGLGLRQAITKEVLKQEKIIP
Measure name: Kd (µM)
I only need the number, in µM, no unit after it.

Which Kd is listed for `CCOc1ccccc1N1CCN(c2ncnc(N3CCC(C(=O)O)CC3)n2)CC1` ?
1.2

* * *

target: OXA-48 (Klebsiella pneumoniae, UniProt Q6XEC0); experiment: OXA-48 inhibition assay using nitrocefin as reporter; assay type: biochemical; set-up: His-tag (N, cleaved yes); made in house; host or cells: E. coli BL21(DE3), pET28a; details: purified OXA-48, nitrocefin hydrolysis, Morrison fit
Measure name: Ki (µM)
Write down the numeric answer in µM and omit the unit.

Compound	Ki / µM
CCOc1ccccc1N1CCN(c2nc(NCCN)nc(N3CCC(C(=O)O)CC3)n2)CC1 [drawing 44]	0.84

Any idea what its Ki is? The compound is CCOc1ccccc1N1CCN(c2nc(NCCCCN)nc(N3CCC(C(=O)O)CC3)n2)CC1 [CDD-863]
0.45

Moving on to the next compound: CCOc1ccccc1N1CCN(c2ncnc(N3CCC(S(=O)(=O)O)CC3)n2)CC1 [CDD-862]
0.27

Same question for CS(=O)(=O)c1ccccc1N1CCN(c2ncnc(N3CCC(C(=O)O)CC3)n2)CC1 [CDD-181] please.
3.23

Similarly, CCOc1ccccc1N1CCN(c2ncnc(N3CCC(C(=O)O)CC3)n2)CC1 [CDD-97] ?
0.53

Please answer likewise for CCOc1ccccc1N1CCN(c2ncnc(N3CCNC(C(=O)O)CC3)n2)CC1 (stereo not drawn) [CDD-559]
29

Moving on to CCOc1ccccc1CCCNc1ncnc(N2CCC(C(=O)O)CC2)n1 [CDD-899]
15

* * *

target: OXA-10 (Pseudomonas aeruginosa, UniProt P14489); test: Inhibition of other OXA enzymes (nitrocefin reporter): OXA-10
Sequence (P14489 20-266): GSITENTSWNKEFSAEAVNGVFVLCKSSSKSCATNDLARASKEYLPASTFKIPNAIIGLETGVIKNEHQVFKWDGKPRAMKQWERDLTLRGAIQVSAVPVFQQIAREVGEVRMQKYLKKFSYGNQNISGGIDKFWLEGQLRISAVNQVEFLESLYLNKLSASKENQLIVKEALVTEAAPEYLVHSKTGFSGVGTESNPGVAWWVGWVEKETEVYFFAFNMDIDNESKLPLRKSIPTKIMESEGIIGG
Measure name: Ki (µM)
Write the answer as a number in µM, unit excluded.

I have this compound here, `CCOc1ccccc1N1CCN(c2ncnc(N3CCC(C(=O)O)CC3)n2)CC1` , and I need its recorded Ki.
61
